Here the recorded EC50 of cell viability, Fab-Zap assay on Ramos cells (internalization) is given for each entry.
Target: T1, human CD19 (human, UniProt P15391 20-556)
T1 sequence (looked up): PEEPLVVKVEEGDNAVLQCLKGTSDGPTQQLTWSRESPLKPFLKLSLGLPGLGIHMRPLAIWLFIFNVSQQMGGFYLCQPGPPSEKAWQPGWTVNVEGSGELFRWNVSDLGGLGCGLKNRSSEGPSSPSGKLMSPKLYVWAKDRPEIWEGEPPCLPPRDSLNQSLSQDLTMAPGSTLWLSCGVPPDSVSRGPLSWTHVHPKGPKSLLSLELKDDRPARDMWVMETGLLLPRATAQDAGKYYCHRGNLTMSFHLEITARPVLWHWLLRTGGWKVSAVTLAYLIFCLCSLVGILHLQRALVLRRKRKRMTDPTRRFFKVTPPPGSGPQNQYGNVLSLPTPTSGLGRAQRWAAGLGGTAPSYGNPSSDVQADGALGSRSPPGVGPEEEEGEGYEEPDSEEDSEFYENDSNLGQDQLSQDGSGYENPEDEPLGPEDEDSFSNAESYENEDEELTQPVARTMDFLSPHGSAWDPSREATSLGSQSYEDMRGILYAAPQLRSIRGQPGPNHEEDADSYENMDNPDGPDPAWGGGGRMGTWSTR
Experiment: cell-based or functional assay
// note: answer is a bare numeric in pM

{"columns": ["binder", "measurement"],
 "data": [
  ["WBP7011_4.155.8 (antibody, V domains shown) VH: EIQLQQSGPELVKPGASVKVSCKASGYAFTSYNMYWVKQSHGKSLEWIGYIDPYNGDTTYNQKFKGKATLTVDKSSSTAYMHLNSLTSEDSAVYYCLTTAYAMDYWGQGTSVTVSS VL: QIVLTQSPAIMSASLGEEITLTCSASSTVNYMHWYQQKSGTSPKLLIYSTSNLASGVPSRFSGSGSGTFYSLTIRSVEAEDAADYYCHQWSSYPYTFGGGTKLEIK", 27.6]
]}

Task: Complete the entry with EC50 of cell viability, Fab-Zap assay on Ramos cells (internalization) for WBP7011_4.202.9 (antibody, mouse IgG2a, V domains shown, also called W7011-4.202.9) VH: EIQLQQSGPELVKPGASVKVSCKASGYAFTSYNMYWVKQSHGKSLEWIGYIDPYNGDTTYNQKFKGKATLTVDKSSSTAYMHLNSLTSEDSAVYYCLTTAYAMDYWGQGTSVTVSS VL: QIVLTQSPAIMSASLGEEITLTCSASSTVNYMHWYQQKSGTSPKLLIYSTSNLASGVPSRFSGSGSGTFYSLTIRSVEAEDAADYYCHQWSSYPYTFGGGTKLEIK
Result: 23.6

Task: Specify measured EC50 of cell viability, Fab-Zap assay on Ramos cells (internalization) for WBP7011-4.106.3 (antibody, V domains shown, also called W7011-4.106.3) VH: EVQLQQSGPELVKPGASVKMSCKASGYTFSSYVIHWVKQKPGQGLEWIGYINPYNDGAEYAEKFKGKATLTSDKSSSSAYMELGSLTSEDSAVYYCARGPYYYGGSPFDYWGQGTTLTVSS VL: DAVMTQTPLSLPVSLGDQASISCRSSQSLENSNGNTYLNWYLQKPGQSPQLLIYRVSNRFSGVLDRFSGSGSGTDFTLKISRVEAEDLGVYFCLQVTHVPYTFGGGTKLEIK .
Result: 13.6
